- Assay protocol: PubChem AID 504770
- Conditions: E. coli YBA685 rctB-dependent plasmid, OD600 growth, 3 h
In all, about 130,000 compounds went through this assay and about 350 (0.27%) were called active. Rule as the data show it: active = z-score below about -2 (passing the limit was not always enough); inactive = the rest. The entries come from a sample that favours actives as a whole.
Classes used: label 1 = active, label 0 = inactive

> print(dat)
                                    molecule  answer.label
 1  COCCn1c(C)cc(C(=O)COC(=O)Cn2c(C)csc2=O)c1C       label 0
 2              c1ccc(CNCc2ccc3c(c2)OCO3)cc1       label 0
 3             Cc1ccc(NNC(=O)C(C)(C)O)c(C)c1       label 0
 4  Cc1cc(C(=O)COC(=O)C2CC2C)c(C)n1-c1cccc(S(=O)(=O)N2CCOCC2)c1 (configuration not stated)       label 0
 5      Cc1csc(=O)n1CC(=O)OCC(=O)c1ccc(Cl)s1       label 0
 6  CCCOc1ccc(C2C3=C(CCCC3=O)OC3=C2C(=O)CCC3)cc1       label 0
 7  O=C1NCCCCC1NC(=S)Nc1ccccc1 (configuration not stated)       label 0
 8  O=C(O)C(Cc1ccccc1)Nc1ncnc2sc3c(c12)CCC3 (configuration not stated)       label 0
 9               CCNCC(=O)Nc1ccc(NC(C)=O)cc1       label 0
10           CC(=O)Nc1ccc(N2C(=O)C=CC2=O)cc1       label 1
11                O=C1C=CC(=O)N1c1ccc(Br)cc1       label 0
12  COc1ccc(-c2nc3cc(N=Cc4cccc(OC)c4O)ccc3o2)cc1       label 0

FYI, the data here is from PubChem BioAssay AID504770.
